B1: PTPLAD1 (parent)
chain: YINFRHLYKQRRRRYGQKKKKIH

Variants of: B1
Assay Overview: protein stability index of a GFP-peptide fusion (GPS, HEK-293T) (PSI 1-6); higher = more stable;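 note: lentivirally expressed fusions sorted by FACS into six bins by GFP to DsRed ratio, PSI derived from sequencing read proportions per bin multiplied by bin number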
Settings: c terminus: native
Outcome Measure: protein stability index
Answer field: number only, no words.

// Input: YINFRHLYKQRRRRYIQKKKKIH [G16I] . Output its protein stability index only. 2.21
